- Test system: PLC-PRF-5 cells
- assay.procedure: Inhibition of proliferation of PLC-PRF-5 cells (ATPlite)
- Format: cell-based
- experimental.setup: Homo sapiens, PLC-PRF-5, PLC-PRF-5 cells; read-out: PLC-PRF-5 cell proliferation IC50
Measured IC50 by item
endpoint.name: IC50 (nM)

molecule	endpoint.name	measurement
CN(c1ccc(NC(=O)Nc2cccc(C(F)(F)F)c2)c(F)c1)c1cc(NC(=O)C2CC2)ncn1	IC50	8380
CC(F)(F)c1cncc(NC(=O)Nc2ccc(Oc3ccnc(NC(=O)C4CC4)c3)cc2F)c1	IC50	35
Cc1ccc(NC(=O)Nc2ccc(Oc3ccnc(NC(=O)C4CC4)c3)cc2)cc1C(F)(F)F	IC50	230
Cc1cc(NC(=O)Nc2ccc(Cl)c(C(F)(F)F)c2)cnc1Oc1ccnc(NC(=O)C2CC2)c1	IC50	2820
O=C(Nc1cncc(C(F)(F)F)c1)Nc1ccc(Oc2ccnc(NC(=O)C3CC3)c2)cc1F	IC50	79
CC(c1cc(NC(=O)Nc2ccc(Oc3ccnc(NC(=O)C4CC4)c3)c(F)c2)cc(C(F)(F)F)c1)N1CCN(C)CC1 (centres unmarked)	IC50	108
CN1C(=O)C2(CC2)c2cc(NC(=O)Nc3ccc(Oc4ccnc(NC(=O)C5CC5)c4)cc3)ccc21	IC50	2500
Cc1cc(Oc2ccnc(NC(=O)C3CC3)c2)ccc1NC(=O)Nc1cc(C(C)(F)F)ccc1F	IC50	740
